- experimental.details: Free drug concentration in mouse at 30 mg/kg, po measured after 2 hrs
- Type: ADME, organism-based
- condition.summary: in vivo
hey, just use Fulfilled if measured Drug uptake(free) is less than 40 nM, otherwise Not fulfilled

>>> assigned_category("Cc1nc(Nc2ncc(C(=O)Nc3c(C)cccc3Cl)s2)cc(N2CCN(CCO)CC2)n1.O")
"Fulfilled"
>>> assigned_category("Cc1nc(Nc2ncc(C(=O)Nc3c(C)csc3Cl)s2)cc(N2CCN(C)CC2)n1")
"Not fulfilled"
>>> assigned_category("Cc1nc(Nc2ncc(C(=O)Nc3c(C)csc3Cl)s2)cc(N2CCN(CCO)CC2)n1")
"Fulfilled"
>>> assigned_category("Cc1nc(Nc2ncc(C(=O)Nc3c(Cl)csc3C)s2)cc(N2CCN(CCO)CC2)n1")
"Not fulfilled"

Shift focus to the following entry.
Determine whether this compound shows Drug uptake(free) lower than 40 nM (ties excluded): `Cc1nc(Nc2ncc(C(=O)Nc3c(Cl)csc3Cl)s2)cc(N2CCN(CCO)CC2)n1`
Not fulfilled

The reported measurements were obtained from ChEMBL document CHEMBL4806967.
